Target: T1, human CLEC12A expressed on cells (human, UniProt Q5QGZ9 1-265)
T1 construct: whole, on cells; also called RMA-hCLEC12A; hCLEC12A+Ba/F3
T1 sequence (looked up): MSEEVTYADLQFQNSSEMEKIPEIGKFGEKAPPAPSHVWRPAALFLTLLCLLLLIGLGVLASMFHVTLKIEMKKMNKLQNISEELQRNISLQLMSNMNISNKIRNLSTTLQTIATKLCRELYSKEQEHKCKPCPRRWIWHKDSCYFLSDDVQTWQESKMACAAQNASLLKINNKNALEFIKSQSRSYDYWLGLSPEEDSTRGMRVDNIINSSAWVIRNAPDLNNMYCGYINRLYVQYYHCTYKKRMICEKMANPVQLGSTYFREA
Assay: flow cytometry, PL21 cells
pEC50: −log10 of the molar value.

binder	pEC50
16B8.C8 (antibody, V domains shown, Murine mAb purified from the hybridoma subclone; also called Murine 16B8 mAb; Murine 16B8. mAb) VH: EVQLQESGPGLVQPSQSLSITCTVSGFSLTNYGLHWVRQSPGKGLEWLGVIWSGGKTDYNTPFKSRLSISKDISKNQVFFKMNSLQPNDTAIYFCAKYDYDDSLDYWGQGTSVTVSS VL: DIQMNQSPSSLSASLGDTIAITCHASQNINFWLSWYQQKPGNIPKLLIYEASNLHTGVPSRFSGSGSGTRFTLTISSLQPEDIATYYCQQSHSYPLTFGQGTKLEIK	9.74
9E4.B7 (antibody, V domains shown, Murine mAb purified from the hybridoma subclone) VH: EVQLQESGAELMKPGASVKISCRTTGYTFSTYWIEWVKQRPGRGPEWIGELFPGNSDTTLNEKFTGKATFTADSSSNTAYMQLSSLTSEDSAVYYCARSGYYGSSLDYWGQGTTLTVSS VL: GIVMTQSPASLSASVGETVTITCRAGENIHSYLAWYQQKQGKSPQLLVYNAKTLAEGVPSRFSGSGSGTQFSLKINSLQPEDFGSYYCQHHYGTPRTFGGGTKLEIK	9.19
9F11.B7 (antibody, V domains shown, Murine mAb purified from the hybridoma subclone) VH: EVQLQESGGGLVQPGGSRKLSCAASGFTFNSFGMHWVRQAPEKGLEWVAFISSGSTSIYYANTVKGRFTISRDNPKNTLFLQMTSLRSEDTAMYYCARDGYPTGGAMDYWGQGTSVTVSS VL: DIKMTQSPSSMYASLGERVTITCKASQDIYNYLSWFQLKPGKSPRPLIYRANILVSGVPSKFSGSGSGQDYSLTINSLEYEDLGIYYCLQFDAFPFTFGSGTKLEIK	9.25
Genentech-h6E7 (antibody, V domains shown) VH: EVQLVQSGAEVKKPGASVKVSCKASGYSFTDYYMHWVRQAPGQGLEWIGRINPYNGAAFYSQNFKDRVTLTVDTSTSTAYLELSSLRSEDTAVYYCAIERGADLEGYAMDYWGQGTLVTVSS VL: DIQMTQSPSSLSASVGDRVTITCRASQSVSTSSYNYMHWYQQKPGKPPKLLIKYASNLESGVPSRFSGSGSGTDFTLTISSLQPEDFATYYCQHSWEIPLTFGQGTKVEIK	8.30
